- procedure.details: NCI Yeast Anticancer Drug Screen. Data for the cln2 rad14 strain (AID 165);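 further: 0% = growth equal to vehicle treated cultures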
- applied.conditions: S. cerevisiae cln2 rad14 strain, at 50.0 µM, stronger effect = higher value
Compounds without any hit were thinned out: in the full panel of roughly 79,000, 15% have a hit.
readout: growth inhibition (%)
Numbers only, in %.

# count of solved cases: 4
COC(=O)C1(CC(=O)C(c2ccccc2)c2ccccc2)NC(=S)NC(=O)C1C#N (centres undefined) :: -2.7
Nn1c(SSSSc2nnc(-c3ccccc3)n2N)nnc1-c1ccccc1 :: -19.7
COc1cc2c3c4c1OCc1c5c(cc(c1-4)CC3[N+](C)(C)CC2)OCO5 (centres undefined) :: 21.1
CCCCCCNC(C)=O :: 5.7

Batch: growth inhibition for all items listed.
1. Cc1ccc(CNC(=O)Nc2c(C)cccc2C)cc1C
2. C=C1C2CCC3(CCC4C5(C)CCCC4(CN(C(C)=O)C5)C3C2)C1O (centres undefined)

1: -6.3; 2: 1.4

Batch: growth inhibition for all items listed.
1. c1ccc(CN2COc3c(ccc4c5c(ccc34)CN(Cc3ccccc3)CO5)C2)cc1
2. CCCCCO[Si](OCCCCC)(OCCCCC)OCCCCC
3. O=C1C[C@@]23CCC4(CC2=CCC[C@H]3O1)OCCO4
4. CCN(CC)C(=O)N1CCN(c2ccccc2)CC1
5. O=C(O)CCCCCCc1ccc2ccccc2n1

1. -14.1
2. -4.4
3. 14.7
4. 5.65
5. 10

Batch: growth inhibition for all items listed.
1. c1ccc(-c2nnc(SCc3nc4ccccc4[nH]3)o2)cc1
2. COc1cccc(C(=O)O)c1Cc1cccc2ccccc12
3. O=C(CCCN1CCC(O)(c2ccc(Cl)cc2)CC1)c1ccc(N2CCC(O)CC2)cc1
4. CCOC(=O)C/C(C)=C1/N=C(c2ccccc2)OC1=O
5. COc1ccccc1OCC(=O)O
6. COC(=O)c1cc(C)n(C)c(=O)c1CNS(=O)(=O)c1ccc(C)cc1
7. [B]C(=O)NC(CC(C)C)C(=O)NCC(=O)NC1c2ccsc2C(=O)C1O (centres undefined) (tested in a mixture with another compound)
8. Cc1sc2nc3n(c(=O)c2c1C)N=CN(c1ccc(F)cc1)C3

[36.3, 27.2, -44.6, 14.8, -24.9, -6, -8.45, -17.1]

Batch: growth inhibition for all items listed.
1. CN(C)c1ccc(N=Nc2cccc3ccoc23)cc1
2. Cc1nn(C(=O)c2ccc(Cl)cc2)c2c1C(c1ccco1)SC(N)=N2 (centres undefined)

1: -28.3; 2: -17.9

Batch: growth inhibition for all items listed.
1. COc1cc(C(=O)NC(CCN)(c2ccccc2)c2ccccc2)cc(OC)c1OC
2. NCCNc1ncnc2ccc(Cl)cc12
3. O=C1Cn2c(cc(=O)c3ccccc32)O1

[10.4, -30.5, -9.35]

---

- procedure.details: NCI Yeast Anticancer Drug Screen. Data for the bub3 strain (AID 167)
- applied.conditions: S. cerevisiae bub3 mutant strain, at 50.0 µM, stronger effect = higher value
This is part of a sample that, as a whole, favours compounds with a hit. Of some 79,000 tested, about 15% had one in any assay.
readout: growth inhibition (%)
One number for each entry, in %.

# count of solved cases: 2
CC1OC(c2ccc(Cl)cc2Cl)OC1C (stereo unspecified) :: 0.95
CCOC(=O)CCC(NC1=C(Cl)C(=O)c2ccccc2C1=O)C(=O)O (stereo unspecified) :: 0.15

Batch: growth inhibition for all items listed.
1. CCCCCCCCCCCCCCCCCCNC1=C(C)C(=O)C(NCCCCCCCCCCCCCCCCCC)=C(OCC)C1=O
2. CCCCCCCCCCCCCCCCOc1ccc(S(=O)(=O)N/N=c2/sc(-c3ccccc3Cl)nn2C)cc1C(=O)O
3. CCOC(=O)C(=CC(CC)CC)C(=O)OCC

-1.2
6.9
-16.2
